Each recorded value in this set is attributed to PubChem BioAssay AID1159580.

# assay.procedure: chemical genetic growth profiling, strain panel (AID 1159580);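 note: tested at 20 µM; growth read once vehicle control cultures reached saturation at 30 °C; 1 = growth at the plate median or of vehicle wells; lower values mean less growth of the strain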
# condition.info: S. cerevisiae deletion strains, growth OD, locus YDR388W
The campaign covered roughly 5,500 compounds. About 2,000 (36%) were called active. Inconclusive results (about 18%) are left out. Cut-off read from the data, not from the text of the source: active = normalized growth mostly below about 0.91 (no sharp cut-off); inconclusive = no clear call, values can overlap the other calls; inactive = mostly above about 0.92. This is one part of the list.
Outcomes: active, inactive

molecule="O=C(OC1Cc2c(O)cc(O)cc2OC1c1cc(=O)c(O)c2c(O)c(O)cc(C3Oc4cc(O)cc(O)c4CC3O)c2c1)c1cc(O)c(O)c(O)c1 (stereo not drawn)" label_class=active
molecule="COc1ccc2c3c1OC1C(O)CC=C4C(C2)N(C)CCC431 (stereo not drawn)" label_class=inactive
molecule="CN[C@@H]1C(O)[C@@H](O[C@@H]2[C@@H](O)[C@H](O[C@H]3OC(CN)=CC[C@H]3N)[C@@H](N)C[C@H]2N)OC[C@]1(C)O (stereo partly drawn)" label_class=inactive
molecule=COc1ccc(-c2cc(=O)c3c(O)cc(O[C@@H]4O[C@H](CO[C@H]5O[C@H](C)[C@@H](O)[C@H](O)[C@@H]5O)[C@@H](O)[C@H](O)[C@H]4O)cc3o2)cc1O label_class=inactive
molecule=NC(N)=NC(=O)c1nc(Cl)c(N)nc1N label_class=inactive
molecule=COC(=O)c1c(C)cc(OC)cc1O label_class=inactive
molecule=O=c1c(O)c(-c2ccc(O)cc2O)oc2cc(O)cc(O)c12 label_class=inactive
molecule=O=c1c(O)c(-c2ccc(O)c(O)c2)oc2cc(O)cc(O)c12 label_class=inactive
molecule=CCN1C[C@]2(C)CC[C@H](OC)[C@]34C2[C@H](O)[C@]2(OCO[C@@]25C[C@H](OC)[C@H]2C[C@]3(O)C5[C@H]2O)C14 label_class=inactive
molecule=CCCCOc1cc(C(=O)NCCN(CC)CC)c2ccccc2n1 label_class=inactive
molecule=CC(=O)OCC1=C(C(=O)O)N2C(=O)[C@@H](NC(=O)Cc3cccs3)[C@H]2SC1 label_class=inactive
molecule=CN1C(C)(C)CCCC1(C)C label_class=inactive
molecule=COc1c(C(C)C)oc2cc3oc(=O)ccc3cc12 label_class=inactive
molecule="CCCCC1C(=O)N(c2ccccc2)N(c2ccc(O)cc2)C1=O (stereo not drawn)" label_class=inactive
molecule="Oc1cc2c(cc1O)C1c3ccc(O)c(O)c3OCC1(O)C2 (stereo not drawn)" label_class=inactive
molecule=CCOC(=O)c1c(C)cc(OC)cc1O label_class=inactive
molecule="CC(=O)Oc1ccc2c(c1OC(C)=O)OCC1(O)Cc3c(cc(OC(C)=O)c(OC(C)=O)c3OC(C)=O)C21 (stereo not drawn)" label_class=inactive
molecule=Cc1cc(OC(=O)c2c(C)cc(OC(=O)c3c(C)cc(O)cc3O)cc2O)cc(O)c1C(=O)O label_class=inactive
molecule="CCC(N)C(O)c1ccc(O)c(O)c1 (stereo not drawn)" label_class=inactive
molecule=COc1ccc(-c2oc3cc(O[C@H]4O[C@H](CO)[C@@H](O)[C@H](O)[C@H]4O)c(OC)c(O)c3c(=O)c2OC)cc1O label_class=inactive
molecule=COc1cc(OC)c2ccc(=O)oc2c1 label_class=inactive
molecule=COc1ccccc1/C=C\C(=O)O label_class=inactive
molecule=O=C(O[C@@H]1Cc2c(O)cc(O)cc2O[C@@H]1c1cc(O)c(=O)c2c(O)c(O)cc([C@H]3Oc4cc(O)cc(O)c4C[C@H]3OC(=O)c3cc(O)c(O)c(O)c3)c2c1)c1cc(O)c(O)c(O)c1 label_class=inactive
molecule=NC(N)=NC(=O)c1nc(Cl)c(N2CCCCCC2)nc1N label_class=inactive
molecule=CCC(=O)c1c(O)cc(O)cc1O label_class=inactive
molecule=C=C[C@H]1CN2CC[C@H]1C[C@@H]2[C@@H](OC(=O)OCC)c1ccnc2ccc(OC)cc12 label_class=inactive
molecule=CCc1cc(C(N)=S)ccn1 label_class=inactive
molecule="CCN(Cc1ccncc1)C(=O)C(CO)c1ccccc1 (stereo not drawn)" label_class=inactive

====

# assay.procedure: chemical genetic growth profiling, strain panel (AID 1159580)
# condition.info: S. cerevisiae deletion strains, growth OD, locus YGR078C, strain PAC10
Screen size: about 5,500 compounds; about 2,000 (36%) were called active. Roughly 18% stayed inconclusive and do not appear here. No stated cut-off is given here; in the data, active means normalized growth mostly below about 0.91 (no sharp cut-off); inconclusive means no clear call, values can overlap the other calls; inactive means mostly above about 0.92. Some of the results follow.
Outcomes: True = active, False = inactive

compound=CCOCN(C(=O)CCl)c1c(C)cccc1CC label_class=False
compound="CC(C)C1COc2cc3oc(=O)ccc3cc2O1 (stereo not given)" label_class=True
compound=NC(N)=NC(=O)c1nc(Cl)c(N2CCCCCC2)nc1N label_class=False
compound=CCOC(=O)N/N=C\c1ccccc1OCC label_class=False
compound=CC(C)CN(C)c1nc(N)c(C(=O)N=C(N)N)nc1Cl label_class=False
compound="CCC1OC(=O)[C@H](C)C(=O)[C@H](C)[C@@H](OC2O[C@H](C)C[C@H](N(C)C)[C@H]2O)[C@](C)(OC)C2(CCCn3cnc(-c4cccnc4)c3)C[C@@H](C)C(=O)[C@H](C)[C@H]3N(C2)C(=O)O[C@]13C (stereo not given in full)" label_class=False
compound=COCCCNC(=S)N/N=C\c1cccc(OC)c1O label_class=False
compound="COC(=O)C[C@H]1C(C)(C)C2(Cl)O[C@@]34CC2C(=O)[C@]1(C)C3CC[C@]1(C)C4=CC(=O)O[C@H]1c1ccoc1 (stereo not given in full)" label_class=False
compound=COC(=O)CSc1ncnc2c(C)csc12 label_class=False
compound=COc1ccc(Cl)cc1C(=O)NCCc1ccc(S(=O)(=O)NC(=O)NC2CCCCC2)cc1 label_class=False

====

# assay.procedure: chemical genetic growth profiling, strain panel (AID 1159580)
# condition.info: S. cerevisiae deletion strains, growth OD, locus YNR052C, strain pop2, hits give low values
Out of some 5,500 compounds screened, about 2,000 (36%) were called active. Another 18% or so got no clear call; they are omitted. This is one part of the list.
Let's look at some compounds and their measured normalized growth.
assay.readout: normalized growth

compound=CN1C[C@H](C(=O)N[C@]2(C)O[C@@]3(O)[C@@H]4CCCN4C(=O)[C@H](Cc4ccccc4)N3C2=O)C[C@@H]2c3cccc4[nH]cc(c34)C[C@H]21 numeric_result=0.972
compound=C[C@@H]([C@H](O)c1ccccc1)N(C)C numeric_result=1
compound="CC1(C)C2CC(=O)[C@]3(C)C(CC[C@@]4(C)[C@H](c5ccoc5)OC(=O)C5OC543)[C@@]2(C)[C@@H](O)C[C@H]1O (some centres undefined)" numeric_result=0.975
compound="COC(=O)C1OC(=O)C2OC23C1(C)CCC1C2(C)C(OC(C)=O)CC(OC(C)=O)C(C)(C)C2CC(=O)C13C (centres undefined)" numeric_result=0.986

====

# assay.procedure: chemical genetic growth profiling, strain panel (AID 1159580);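 note: tested at 20 µM; growth read once vehicle control cultures reached saturation at 30 °C; 1 = growth at the plate median or of vehicle wells; lower values mean less growth of the strain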
# condition.info: S. cerevisiae deletion strains, growth OD, locus YJL129C, strain trk1
The whole screen tested about 5,500 compounds, of which about 2,000 (36%) were called active. Not shown: some 18% with an inconclusive outcome. Cut-off read from the data, not from the text of the source: active = normalized growth mostly below about 0.91 (no sharp cut-off); inconclusive = no clear call, values can overlap the other calls; inactive = mostly above about 0.92. The list shows a part of the results.
Outcomes: active, inactive

compound="COc1ccc2c(c1)CCC1C2CC[C@@]2(C)C1CC[C@@H]2O (stereo not given in full)" label_class=active
compound="CC1O[C@@H](Oc2c(-c3ccc(O)c(O)c3)oc3cc(O)cc(O)c3c2=O)[C@H](O)[C@H](O)[C@H]1O (stereo not given in full)" label_class=inactive
compound="COc1ccc2c(c1)CCC1C2CCC2(C)C1C[C@@H](O)C2O (stereo not given in full)" label_class=inactive
compound="CC(=O)[C@@]1(O)CCC2C3C[C@H](C)C4=CC(=O)C=CC4(C)[C@@]3(F)[C@@H](O)C[C@@]21C (stereo not given in full)" label_class=inactive
compound="C[C@]12CCC3c4ccc(OS(=O)(=O)O)cc4CCC3C1CC[C@H]2O (stereo not given in full)" label_class=inactive

====

Let's look at some compounds and their measured normalized growth.
# assay.procedure: chemical genetic growth profiling, strain panel (AID 1159580);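 note: tested at 20 µM; growth read once vehicle control cultures reached saturation at 30 °C; 1 = growth at the plate median or of vehicle wells; lower values mean less growth of the strain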
# condition.info: S. cerevisiae deletion strains, growth OD, locus YOR265W, strain rbl2, hits give low values
Out of some 5,500 compounds screened, about 2,000 (36%) were called active. Roughly 18% stayed inconclusive and do not appear here. Some of the results follow.
assay.readout: normalized growth

compound=CC1(C)O[C@H]2CC(=O)OC[C@]23[C@H]2CC[C@@]4(C)[C@H](c5ccoc5)OC(=O)[C@H]5O[C@]54[C@]2(C)C(=O)C[C@@H]13 numeric_result=0.984
compound="Oc1cc2c(cc1O)C1c3ccc(O)c(O)c3OCC1(O)C2 (stereo not drawn)" numeric_result=1
compound="CC1(C)C(=O)C=C[C@@]2(C)C1C=C[C@]1(C)C2CC[C@@]2(C)[C@H](c3ccoc3)OC(=O)C3OC321 (stereo partly drawn)" numeric_result=0.986

====

Let's look at some compounds and their measured normalized growth.
# assay.procedure: chemical genetic growth profiling, strain panel (AID 1159580);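 note: tested at 20 µM; growth read once vehicle control cultures reached saturation at 30 °C; 1 = growth at the plate median or of vehicle wells; lower values mean less growth of the strain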
# condition.info: S. cerevisiae deletion strains, growth OD, locus YCL061C, strain MRC1 (second series), hits give low values
Among all 5,500 compounds or so, about 2,000 (36%) were called active. Not shown: some 18% with an inconclusive outcome. This is one part of the list. Where a SMILES comes first, the peptide text is derived from it. The star is where a group is joined. Cbz = O=C(OCc1ccccc1)*
assay.readout: normalized growth

compound="COc1ccc2c(c1)CCC1C2CC[C@@]2(C)C1CC[C@@H]2NCCCCCCN1C(=O)C=CC1=O (stereo partly specified)" numeric_result=0.998
compound="O=C(NC(Cc1ccccc1)C(=O)CCl)OCc1ccccc1 (stereo unspecified)" numeric_result=0.979
compound=c1ccc(-c2ccccn2)nc1 numeric_result=0.975
compound="CCCCCCCCCCCCCCCC(=O)OC(CC(=O)O)C[N+](C)(C)C (stereo unspecified)" numeric_result=0.492
compound="CC(C)[C@H](NC(=O)OCc1ccccc1)C(=O)N[C@H](C=O)Cc1ccccc1 (Cbz-Val-Phe-aldehyde)" numeric_result=1
compound=Oc1ccc(-c2nc(-c3ccc(F)cc3)c(-c3ccncc3)[nH]2)cc1 numeric_result=1.01
compound="CCCCCCCCCCCCCCCCCC(=O)OC(CC(=O)O)C[N+](C)(C)C (stereo unspecified)" numeric_result=0.991
compound=C1COC(NC(C2CC2)C2CC2)=N1 numeric_result=0.997
compound=O=C1CCC(c2ccc(-n3ccnc3)cc2)=NN1 numeric_result=1
compound="CCC1(O)CC2CN(CCc3c([nH]c4ccccc34)[C@@](C(=O)OC)(c3cc4c(cc3OC)N(C=O)C3[C@]45CCN4CC=C[C@@](CC)([C@@H](OC(C)=O)[C@]3(O)C(=O)OC)[C@H]45)C2)C1 (stereo partly specified)" numeric_result=0.991
compound="Nc1nc(Nc2ccccc2)nc2c1ncn2[C@@H]1O[C@H](CO)[C@H](O)C1O (stereo partly specified)" numeric_result=0.999
compound="NC(=S)NCCCC(N)C(=O)O (stereo unspecified)" numeric_result=1.01
compound=Cc1cc(C)c(/C=C2\C(=O)Nc3ccccc32)[nH]1 numeric_result=0.994
compound=N[C@H](C(=O)O)c1cc(O)cc(O)c1 numeric_result=0.995
compound=O=c1c(O)c(-c2ccc(O)cc2O)oc2cc(O)cc(O)c12 numeric_result=0.986
compound=Cc1ccc(S(=O)(=O)N[C@@H](Cc2ccccc2)C(=O)CCl)cc1 numeric_result=0.987
compound="CCC(CO)NC(=O)C1C=C2c3cccc4[nH]cc(c34)CC2N(C)C1 (stereo unspecified)" numeric_result=1
compound=COc1cc2c(cc1O)CC[C@@H]1[C@@H]2CC[C@]2(C)[C@@H](O)CC[C@@H]12 numeric_result=1
compound=C=C(C)[C@H]1CN[C@H](C(=O)O)[C@H]1CC(=O)O numeric_result=1
compound=S=C(NC1CCCCC1)N1CCC(c2cnc[nH]2)CC1 numeric_result=0.998
compound="CCCC1O[C@@H]2C[C@H]3[C@@H]4CCC5=CC(=O)C=C[C@]5(C)[C@H]4[C@@H](O)C[C@]3(C)[C@]2(C(=O)CO)O1 (stereo partly specified)" numeric_result=0.998
